- test target: Ubiquitin carboxyl-terminal hydrolase 2 (Homo sapiens)
- protocol: Ub-rhodamine 110 based assay for inhibitors Ubiquitin-specific Protease USP2a; note: nearly all actives have a fitted effect of over 50% in size
- recorded conditions: USP2a Ub-rhodamine110 cleavage, fluorescence; series mostly up to 38.3 µM
Inconclusive results are not listed. Activity calls are given as the source filed them. Calls come from the whole dose curve; as a rule, active = well fitted inhibition curve with a large enough effect; inconclusive = small, poorly fitted or top-dose-only effect, or effect the other way; inactive = flat fitted curve, though single readings scatter.
readout label: outcome

COCCCNC(=O)C1CCN(c2nc(C)cc(C)n2)CC1 ... inactive
CC(=O)c1ccc(Nc2ncnc3c2oc2ccccc23)cc1 ... inactive
COc1cc(NC(=O)COC(=O)CSc2ccccc2F)c(C)cc1[N+](=O)[O-] ... inactive
O=C(O)CP(=O)(c1ccccc1)c1ccccc1 ... inactive
CCOC(=O)c1c(NC(C)=O)sc2c1CCCNC2=O ... inactive
Cc1cc(N2CCOCC2)nc(SCC(=O)c2ccc(Cl)cc2)n1 ... inactive
N=c1sccn1CC(=O)Nc1ccc(S(=O)(=O)N2CCOCC2)cc1 ... inactive
COc1ccc(-c2nc(C#N)c(NCC3CCCO3)o2)cc1OC (configuration not stated) ... inactive
COc1cccc(N2C(=O)C3CCCN3C2c2ccc(N(C)C)cc2)c1 (configuration not stated) ... inactive
CC(C)(C)C1CCc2nc(NC(=O)Cc3cn4ccsc4n3)sc2C1 (configuration not stated) ... inactive

Item: O=C(COc1ccccc1)NCCSc1ccccc1 | outcome: inactive

Item: O=C(c1ccccc1)N1CCN(C(=O)N2CCCCC2)CC1 | outcome: inactive

---

- test target: Ubiquitin carboxyl-terminal hydrolase 2 (Homo sapiens)
- protocol: Ub-rhodamine 110 based assay for inhibitors Ubiquitin-specific Protease USP2a; note: nearly all actives have a fitted effect of over 50% in size
- recorded conditions: USP2a Ub-rhodamine110 cleavage, fluorescence; series mostly up to 38.3 µM
Results filed as inconclusive are left out. Activity calls are given as the source filed them. Calls come from the whole dose curve; as a rule, active = well fitted inhibition curve with a large enough effect; inconclusive = small, poorly fitted or top-dose-only effect, or effect the other way; inactive = flat fitted curve, though single readings scatter.
Outcome (select one): active, inactive

O=[N+]([O-])/C(C(Cl)=C(Cl)Cl)=C(\Sc1ccccc1)N1CCCCC1 ... inactive
O=C(N/N=C/c1ccc(-c2ccc(S(=O)(=O)Nc3ncccn3)cc2)o1)c1cc2ccccc2cc1O ... active
CCCCCc1ccc(OCCOCCn2c[n+](C)c3ccccc32)c(CCCCC)c1 ... inactive
C/C(Cn1nnc2ccccc21)=N\OC(=O)c1ccccc1C ... inactive

Check the results log: what was the call for CCOc1ccc2nc(NC(=O)Nc3ccccc3)sc2c1 ? inactive

---

- test target: Ubiquitin carboxyl-terminal hydrolase 2 (Homo sapiens) (UniProt O75604)
- Sequence (O75604 whole entry, looked up): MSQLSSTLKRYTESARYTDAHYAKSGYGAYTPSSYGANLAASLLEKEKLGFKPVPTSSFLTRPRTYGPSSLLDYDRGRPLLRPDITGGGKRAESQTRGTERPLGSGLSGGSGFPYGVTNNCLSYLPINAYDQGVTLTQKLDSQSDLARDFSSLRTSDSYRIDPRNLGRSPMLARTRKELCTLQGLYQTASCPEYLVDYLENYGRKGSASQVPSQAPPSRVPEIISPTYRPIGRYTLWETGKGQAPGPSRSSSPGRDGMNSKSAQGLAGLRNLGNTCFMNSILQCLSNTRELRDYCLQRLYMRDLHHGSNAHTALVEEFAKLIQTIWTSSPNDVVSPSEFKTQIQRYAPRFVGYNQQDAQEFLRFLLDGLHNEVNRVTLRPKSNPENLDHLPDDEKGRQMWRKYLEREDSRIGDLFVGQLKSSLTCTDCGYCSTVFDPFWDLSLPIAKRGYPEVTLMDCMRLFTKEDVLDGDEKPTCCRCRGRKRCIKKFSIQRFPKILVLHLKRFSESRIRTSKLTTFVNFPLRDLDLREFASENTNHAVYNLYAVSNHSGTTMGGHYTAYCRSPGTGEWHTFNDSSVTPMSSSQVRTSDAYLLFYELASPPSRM
- protocol: Ub-rhodamine 110 based assay for inhibitors Ubiquitin-specific Protease USP2a; note: nearly all actives have a fitted effect of over 50% in size
- recorded conditions: USP2a Ub-rhodamine110 cleavage, fluorescence; series mostly up to 38.3 µM
Results filed as inconclusive are left out. Calls of active or inactive are those of the source. Calls follow the shape of the dose curve; as a rule, active = well fitted inhibition curve with a large enough effect; inconclusive = small, poorly fitted or top-dose-only effect, or effect the other way; inactive = flat fitted curve, though single readings scatter.
Outcome (select one): true (1) for active, false (0) for inactive

Cc1cccc(N=C2NC(=O)/C(=C/C=C/c3ccco3)S2)c1 ... true (1)
O=C(CSCCO)Nc1cccc2ccccc12 ... false (0)
O=C(N/N=C/c1ccc(-c2ccc(Cl)c(C(=O)O)c2)o1)c1cc2c(ccc3ccccc32)o1 ... true (1)
Nc1c(C(=O)Nc2ccc3c(c2)OCCO3)nnn1CCc1ccccc1 ... false (0)

Please find the next molecule below.
Check the results log: what was the call for COc1cc(-c2nc(-c3ccc4c(c3)-c3ccccc3S4(=O)=O)c(-c3ccccc3)[nH]2)cc(OC)c1O ? false (0)

---

- test target: Ubiquitin carboxyl-terminal hydrolase 2 (Homo sapiens)
- protocol: Ub-rhodamine 110 based assay for inhibitors Ubiquitin-specific Protease USP2a; note: nearly all actives have a fitted effect of over 50% in size
- recorded conditions: USP2a Ub-rhodamine110 cleavage, fluorescence; series mostly up to 38.3 µM
Inconclusive results are not listed. The source made the active and inactive calls. The call rests on the fitted dose curve; in most records, active means well fitted inhibition curve with a large enough effect; inconclusive means small, poorly fitted or top-dose-only effect, or effect the other way; inactive means flat fitted curve, though single readings scatter.
Outcome (select one): active, inactive

CC(C)CC(=O)NC(=S)Nc1nc(-c2ccc(Cl)cc2)cs1 ... inactive
C=CCn1c(NCc2cc(C)ccc2O)nc2ccccc21 ... inactive
Cn1ccc(=Nc2ccc(NC(=O)c3ccc(N=c4ccn(C)c5ccc([N+](=O)[O-])cc45)cc3)cc2)cc1 ... inactive

Check the results log: what was the call for Cc1cc(SCC(=O)NC2CCCCC2)nc2ccccc12 ? inactive

Check the results log: what was the call for Cc1cc(-c2nnc3n2N=C(c2ccc(-c4ccccc4)cc2)CS3)n[nH]1 ? active
